// data source = ChEMBL document CHEMBL1139057

system: U-937; test: Antiproliferative activity against human U937 cells after 72 hrs by WST-8 assay; format: functional, cell-based; details: U-937, 72 h
PROPERTY_MEASURED: pIC50
Numbers only, as −log10 of the molar value.

1. COc1ccc([C@@H]2CCc3c(OC)cc(OC)cc3O2)cc1    4.74
2. COc1ccc(-c2coc3cc(O)ccc3c2=O)cc1O [CALYCOSIN]    4.37

Report pIC50 from U-937 testing of COc1cc(O)c(-c2coc3cc(O)ccc3c2=O)cc1OC
4.32

* * *

test system: HT-1080; test: Antiproliferative activity against human HT1080 cells at 10 uM after 48 hrs by calcein-AM assay; type: functional; details: HT-1080, 48 h
Please go through the items and note down their inhibition at 10 µM.

Below are some molecules; for each one, tell me its inhibition at 10 µM.
1. COc1cc2c(cc1OC)[C@@H]1C(=O)c3ccc4c(c3O[C@@H]1CO2)C=CC(C)(C)O4
2. C=C(C)[C@H]1Cc2c(ccc3c2O[C@@H]2COc4cc(OC)c(OC)cc4[C@]2(O)C3=O)O1
3. COc1cc2c(cc1OC)[C@]1(O)C(=O)c3ccc4c(c3O[C@@H]1CO2)C=CC(C)(C)O4

51%
47.6%
67.7%

* * *

system: U-937; assay: Antiproliferative activity against human U937 cells after 48 hrs by WST-8 assay; format: functional, cell-based; conditions: U-937, 48 h
Please go through the items and note down their IC50.
Answers are plain numbers, in µM.

1) COc1ccc(-c2coc3cc(O)ccc3c2=O)cc1O    48

Below are some compounds; for each one, tell me its IC50.
1. C=C(C)[C@H]1Cc2c(ccc3c2O[C@@H]2COc4cc(OC)c(OC)cc4[C@@H]2C3=O)O1
2. COc1ccc([C@@H]2CCc3c(OC)cc(OC)cc3O2)cc1
3. COc1cc2c(cc1OC)[C@]1(O)C(=O)c3ccc4c(c3O[C@@H]1CO2)C=CC(C)(C)O4

1: 0.2; 2: 21; 3: 23

* * *

test system: HT-1080; assay: Antiproliferative activity against human HT1080 cells at 30 uM after 48 hrs by MTT assay; type: functional; details: HT-1080, 48 h
PROPERTY_MEASURED: inhibition at 30 µM (%)
One number for each entry, in %.

Below are some compounds; for each one, tell me its inhibition at 30 µM.
1. C=C(C)[C@H]1Cc2c(ccc3c2O[C@@H]2COc4cc(OC)c(OC)cc4[C@@H]2C3=O)O1
2. O=c1c(-c2ccc(O)cc2)coc2cc(O)cc(O)c12
3. COc1cc2c(cc1OC)[C@]1(O)C(=O)c3ccc4c(c3O[C@@H]1CO2)C=CC(C)(C)O4
4. COc1cc2c(cc1OC)[C@@H]1C(=O)c3ccc4c(c3O[C@@H]1CO2)C=CC(C)(C)O4
5. C=C(C)[C@H]1Cc2c(ccc3c2O[C@@H]2COc4cc(OC)c(OC)cc4[C@]2(O)C3=O)O1
6. CC(=O)O[C@H]1C(=O)[C@@]2(C)[C@H]([C@H](OC(=O)c3ccccc3)[C@]3(O)C[C@H](OC(=O)[C@H](O)[C@@H](NC(=O)c4ccccc4)c4ccccc4)C(C)=C1C3(C)C)[C@]1(OC(C)=O)CO[C@@H]1C[C@@H]2O

96.9
25.3
98
97.3
96
50.3

* * *

tested on: U-937; assay: Antiproliferative activity against human U937 cells after 72 hrs by WST-8 assay; format: functional, cell-based; conditions: U-937, 72 h
pIC50: −log10 of the molar value.
Please go through the items and note down their pIC50.

The following compounds have reported results that may help.
1) COc1ccc2c(c1)O[C@H]1c3ccc(OC)cc3OC[C@@H]21    < 4.00
2) O=C1C=C2OC[C@H]3c4cc5c(cc4O[C@H]3[C@@]2(O)CC1)OCO5    < 4.00

Read the next record carefully.
Please look at this compound and report its pIC50: O=C1C[C@@H](c2ccc(O)c(O)c2)Oc2cc(O)cc(O)c21
< 4.00

* * *

system: U-937; assay: Antiproliferative activity against human U937 cells after 24 hrs by WST-8 assay; assay type: functional, cell-based; conditions: U-937, 24 h
pIC50: −log10 of the molar value.
Please go through the items and note down their pIC50.

1. CC(C)(O)[C@@H](O)Cc1c(O)cc(O)c2c(=O)c(-c3ccc(O)cc3)coc12    < 4.00
2. COc1ccc2c(c1)OC[C@H]1c3cc4c(cc3O[C@@H]21)OCO4    < 4.00

Read the next record carefully.
Please look at this compound and report its pIC50: O=C1C=C2OC[C@H]3c4cc5c(cc4O[C@H]3[C@@]2(O)CC1)OCO5
< 4.00

* * *

system: U-937; experiment: Antiproliferative activity against human U937 cells after 48 hrs by WST-8 assay; format: functional, cell-based; conditions: U-937, 48 h
PROPERTY_MEASURED: IC50

1. O=C1C=C2OC[C@H]3c4cc5c(cc4O[C@H]3[C@@]2(O)CC1)OCO5    > 100 µM
2. COc1ccc2c(c1)O[C@H]1c3ccc(OC)cc3OC[C@@H]21    > 100 µM
3. O=C1C[C@@H](c2ccc(O)c(O)c2)Oc2cc(O)cc(O)c21    > 100 µM
4. CC(C)(O)[C@@H](O)Cc1c(O)cc(O)c2c(=O)c(-c3ccc(O)cc3)coc12    > 100 µM

Read the next record carefully.
Please look at this compound and report its IC50: COc1ccc2c(c1)O[C@@H]1[C@H]2COC2=CC(=O)CC[C@@]21O
> 100 µM
